Data provenance: PubChem BioAssay (NCI)

# Assay: NCI Yeast Anticancer Drug Screen. Data for the rad50 strain (AID 155);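 also: 0% = growth of vehicle-only cultures of the same strain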
# Cond: S. cerevisiae rad50 strain growth inhibition; at 50.0 µM
# Description: Growth inhibition of yeast strains with defined genetic alterations is measured as a screen for potential anti-cancer activity. Selected strains with alterations in DNA damage repair or cell cycle control were exposed to compounds and growth inhibition was measured relative to vehicle treated controls. The strain used in this assay is rad50
Compounds without any hit were thinned out: in the full panel of roughly 79,000, 15% have a hit. Activity calls are given as the source filed them. Rule as the data show it: active = growth inhibition above about 70%; inactive = the rest.
Outcomes: active, inactive

[[record]]
compound = "CN(C)Cc1cc(C(=O)O)ccc1O"
assigned_class = "inactive"

[[record]]
compound = "O=S1c2ccccc2N=C(c2cccc3ccccc23)CC1c1cccc2ccccc12 (stereo unspecified)"
assigned_class = "inactive"

[[record]]
compound = "O=C(O)CCc1nc[nH]c1[N+](=O)[O-]"
assigned_class = "inactive"

[[record]]
compound = "CCOCCOC(=O)C1CCCC1=O (stereo unspecified)"
assigned_class = "inactive"

[[record]]
compound = "CCCCNS(=O)(=O)c1cc(C(=O)O)cc(C(=O)O)c1"
assigned_class = "inactive"

[[record]]
compound = "O=C1/C(=C\\C=C\\c2ccccc2)CCC/C1=C/C=C/c1ccccc1"
assigned_class = "inactive"

[[record]]
compound = "COc1cc(C2CC=CCC2C(=O)O)cc(OC)c1OC (stereo unspecified)"
assigned_class = "inactive"

[[record]]
compound = "Cc1cc(S(=O)(=O)Nc2cc(N)[nH]n2)c(SCc2nc(N)nc(N(C)C)n2)cc1Cl"
assigned_class = "inactive"

[[record]]
compound = "CCOC(=O)C(C(O)c1ccc([N+](=O)[O-])cc1)P(=O)(OCC)OCC (stereo unspecified)"
assigned_class = "inactive"

[[record]]
compound = "C/C(=N/O)C1CC(C)([N+](=O)[O-])CCC1(C)O (stereo unspecified)"
assigned_class = "inactive"

[[record]]
compound = "NC(Cc1c[nH]c2ccc([N+](=O)[O-])cc12)C(=O)O (stereo unspecified)"
assigned_class = "inactive"

[[record]]
compound = "CN1CC(=O)N2CCCCC2C(c2ccccc2)C1 (stereo unspecified)"
assigned_class = "inactive"

[[record]]
compound = "CCOc1c(OC)cc(C2c3cc4c(c(OCC)c3CC3COC(=O)C32)OCO4)cc1OC (stereo unspecified)"
assigned_class = "inactive"

[[record]]
compound = "CCCCCCCCC(C)c1cccc(C(C)CCCCCCCC)c1O (stereo unspecified)"
assigned_class = "inactive"

[[record]]
compound = "Cc1[nH]c2ccc(-c3ccccc3)cc2c1CC(=O)OC(C)C"
assigned_class = "active"

[[record]]
compound = "NC(CS)=NCc1ccccc1"
assigned_class = "inactive"


----------
# Assay: NCI Yeast Anticancer Drug Screen. Data for the cln2 rad14 strain (AID 165);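 also: 0% = growth equal to vehicle treated cultures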
# Cond: S. cerevisiae cln2 rad14 strain, at 50.0 µM, active compounds read high
Compounds without any hit were thinned out: in the full panel of roughly 79,000, 15% have a hit.
Property name: growth inhibition (%)

[[record]]
molecule = "O=C(Nc1ccc(Cl)cc1)NS(=O)(=O)c1coc2cc(F)ccc2c1=O"
measurement = 31.6

[[record]]
molecule = "Cc1cc(C(=O)O)ccc1C(=O)O"
measurement = -39.4

[[record]]
molecule = "CCc1nc2c(c(=O)n(C)c(=O)n2C)n1C"
measurement = -3.85

[[record]]
molecule = "CCN(CC)CCNc1ccc(C)c2sc3ccc(N)cc3c(=O)c12"
measurement = 28.3

[[record]]
molecule = "O=C(O)C(c1ccccc1)C(F)(F)F (stereo not drawn)"
measurement = -10.4

[[record]]
molecule = "CC(=O)Nc1ccc(S(=O)(=O)NN)cc1"
measurement = 10.2

[[record]]
molecule = "CNc1ccc(OC)cc1S(=O)(=O)c1ccccc1[N+](=O)[O-]"
measurement = 18.7

[[record]]
molecule = "CN1C(=O)C2CC(=O)N(Cc3ccccc3)C(=O)C2C1=O (stereo not drawn)"
measurement = 9.3

[[record]]
molecule = "O=C(O)c1c(-c2ccc(Cl)cc2)c(-c2ccc(Cl)cc2)nn(CCO)c1=O"
measurement = 7.4

[[record]]
molecule = "c1cc(CSC2=NCCN2)ccc1CSC1=NCCN1"
measurement = -24.3

[[record]]
molecule = "O=C(Cn1c(=O)oc2ccc(C(=O)c3cccc(Cl)c3)cc21)c1ccccc1"
measurement = -19.5

[[record]]
molecule = "COc1ccc(/C=N/NS(=O)(=O)c2ccc(/C=C3\\NC(=O)N(C)C3=O)cc2)cc1"
measurement = 6.5

[[record]]
molecule = "N/N=C1\\CCCc2c1no[n+]2[O-]"
measurement = 4

[[record]]
molecule = "O=C(O)C1CCN(C(=O)Cc2c3ccccc3cc3ccccc23)CC1"
measurement = -2.5

[[record]]
molecule = "CC1CC[N+]2(C)CCCC12 (stereo not drawn)"
measurement = -39.3

[[record]]
molecule = "CCCCOP(=O)(OCCCC)/C(C#N)=C/c1ccc(C)o1"
measurement = -35.4

[[record]]
molecule = "COC(=O)c1ccc(C(=O)c2ccccc2)cc1"
measurement = 5.55

[[record]]
molecule = "O=C1NC(c2ccccc2)C1N(Cc1ccccc1)Cc1ccccc1 (stereo not drawn)"
measurement = 11.4

